Values compiled from PubChem BioAssay AID1963850.

Record form. Attribute: viability, T/C. Fill in for each entry.
Tested on: 192522-019-R-J2-PDC complex tumor spheroid viability
Assay: Anticancer human tumor 192522-019-R-J2-PDC patient-derived colon adenocarcinoma cell line growth inhibition [POLQ]
Conditions: second compound 1 µM; first compound 0.001 µM; stronger effect = lower value
Give bare numbers, in %.

Examples from the recorded data:
MOLECULE | MEASURED_PARAMETER | VALUE
Cn1ncnc1[C@H]1c2n[nH]c(=O)c3cc(F)cc(c23)N[C@@H]1c1ccc(F)cc1 + Nc1ccc(C#CCN(C(=O)Cc2ncc(C(F)(F)F)cc2C(F)(F)F)c2ccc(F)cc2)nn1 | viability, T/C | 109
Cn1ncnc1[C@H]1c2n[nH]c(=O)c3cc(F)cc(c23)N[C@@H]1c1ccc(F)cc1 + COC1C(OC(N)=O)C(O)C(Oc2ccc3c(O)c(NC(=O)c4ccc(O)c(CC=C(C)C)c4)c(=O)oc3c2C)OC1(C)C | viability, T/C | 95.6
CC[C@@]1(O)C(=O)OCc2c1cc1n(c2=O)Cc2cc3c(CN(C)C)c(O)ccc3nc2-1 + COC1C(OC(N)=O)C(O)C(Oc2ccc3c(O)c(NC(=O)c4ccc(O)c(CC=C(C)C)c4)c(=O)oc3c2C)OC1(C)C | viability, T/C | 99.6
CC[C@@]1(O)C(=O)OCc2c1cc1n(c2=O)Cc2cc3c(CN(C)C)c(O)ccc3nc2-1 + Nc1ccc(C#CCN(C(=O)Cc2ncc(C(F)(F)F)cc2C(F)(F)F)c2ccc(F)cc2)nn1 | viability, T/C | 104
Cn1ncnc1[C@H]1c2n[nH]c(=O)c3cc(F)cc(c23)N[C@@H]1c1ccc(F)cc1 + Cc1cccc(N(C)C(=O)C2C(O)CCN2c2nc(C)cc(C(F)(F)F)c2C#N)c1 | viability, T/C | 108

Let's switch to this molecule now.
Which viability, T/C value is on record for CC[C@@]1(O)C(=O)OCc2c1cc1n(c2=O)Cc2cc3c(CN(C)C)c(O)ccc3nc2-1 + Cc1cccc(N(C)C(=O)C2C(O)CCN2c2nc(C)cc(C(F)(F)F)c2C#N)c1 ? 106

====

Record form. Attribute: viability, T/C. Fill in for each entry.
System: 192522-019-R-J2-PDC complex tumor spheroid viability
Assay: Anticancer human tumor 192522-019-R-J2-PDC cell line growth inhibition [POLQ];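 note: spheroids exposed to drugs for seven days before reading; 100% = DMSO vehicle control viability in luminescence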
Conditions: second compound 10 µM; first compound 0.0316 µM; stronger effect = lower value
One number for each entry, in %.

Examples from the recorded data:
COMPOUND | viability, T/C (%)
COc1cc(C2c3cc4c(cc3C(OC3OC5COC(C)OC5C(O)C3O)C3COC(=O)C23)OCO4)cc(OC)c1O (stereo not given) + COC1C(OC(N)=O)C(O)C(Oc2ccc3c(O)c(NC(=O)c4ccc(O)c(CC=C(C)C)c4)c(=O)oc3c2C)OC1(C)C | 107
Cn1ncnc1[C@H]1c2n[nH]c(=O)c3cc(F)cc(c23)N[C@@H]1c1ccc(F)cc1 + Nc1ccc(C#CCN(C(=O)Cc2ncc(C(F)(F)F)cc2C(F)(F)F)c2ccc(F)cc2)nn1 | 99.2
COc1cc2cc(C(=O)CCC(=O)O)sc2cc1OC + COC1C(OC(N)=O)C(O)C(Oc2ccc3c(O)c(NC(=O)c4ccc(O)c(CC=C(C)C)c4)c(=O)oc3c2C)OC1(C)C | 102
COc1cc2cc(C(=O)CCC(=O)O)sc2cc1OC + Nc1ccc(C#CCN(C(=O)Cc2ncc(C(F)(F)F)cc2C(F)(F)F)c2ccc(F)cc2)nn1 | 109

Let's switch to this compound now.
Which viability, T/C value is on record for COc1cccc(OCCCN)c1-c1cc(Nc2cnc(C#N)cn2)n[nH]1 + Nc1ccc(C#CCN(C(=O)Cc2ncc(C(F)(F)F)cc2C(F)(F)F)c2ccc(F)cc2)nn1 ? 46.7
